Data credit: patent US7999099B2

test: Pharmacokinetics of generated AZT in dog blood after oral administration; type: in vivo; details: in vivo, of azidothymidine, oral, amount equivalent to 250 mg of AZT, read-out: Tmax
Reported Metric: Tmax (h)
Please state the figure in h; there is no need to write the unit.

The reported value for Cc1cn([C@H]2C[C@H](N=[N+]=[N-])[C@@H](CO)O2)c(=O)[nH]c1=O in terms of Tmax is 2.5
